Items are presented alongside their recorded melting point.
Counter-ions that a name gives are not always drawn.

Completed entries (count: 2):
{"MOLECULE": "O=c1[nH]c2ccc(F)cc2cc1C(c1ccc(Cl)cc1)C1(O)CCNC(Cc2ccccc2)C1 (stereo not drawn) (as salt: hydrochloride)", "ENDPOINT_VALUE": "> 250 °C"}
{"MOLECULE": "O=c1[nH]c2ccc(Br)cc2cc1C(c1ccc(Cl)cc1)C1(O)CCNC(Cc2ccc(F)cc2)C1 (stereo not drawn) (as salt: hydrochloride) [Compound 341]", "ENDPOINT_VALUE": "> 260 °C"}

Below: the item to evaluate.
Asked: Look up melting point for this molecule: COc1nc2ccccc2cc1C(c1ccccc1)C1(O)CCNC(c2ccccc2)C1 (stereo not drawn) (as salt: fumarate) [Compound 413]
Given back: > 250 °C

----------
Structures can show the parent of a compound that is named as a salt.
OBSERVATION_TYPE: melting point (°C)

Field: example entries. Status: answers known.
{"COMPOUND": "COc1nc2ccc(S(C)(=O)=O)cc2cc1C(c1ccccc1)C1(O)CCNC(Cc2ccccc2)C1 (centres unmarked) [Compound 158]", "melting point / °C": 198}
{"COMPOUND": "COc1nc2ccc(SC)cc2cc1C(c1ccc(Cl)cc1)C1(O)CCNC(c2ccc(F)cc2C)C1 (centres unmarked) [Compound 275]", "melting point / °C": 140}
{"COMPOUND": "CSc1ccc2[nH]c(=O)c(C(c3ccc(Cl)cc3)C3(O)CCNC(Cc4ccc(F)cc4)C3)cc2c1 (centres unmarked) (as salt: hydrochloride) [Compound 282]", "melting point / °C": 206}
{"COMPOUND": "COc1nc2ccc(F)cc2cc1C(c1ccc(Cl)cc1)C1(O)CCNC(Cc2ccccc2)C1 (centres unmarked) (as salt: fumarate) [Compound 54]", "melting point / °C": 209}
{"COMPOUND": "COc1nc2ccc(SC)cc2cc1C(c1ccc(Cl)cc1)C1(O)CCNC(CC2CCCCC2)C1 (centres unmarked) [Compound 287]", "melting point / °C": 185}

[P] COc1nc2ccc(Br)cc2cc1C(c1ccccc1)C1(O)CCNC(c2ccc(F)cc2C)C1 (centres unmarked) [Compound 249]
[Q] COc1nc2ccc(S(C)(=O)=O)cc2cc1C(c1ccc(Cl)cc1)C1(O)CCNC(Cc2ccc(F)cc2)C1 (centres unmarked) [Compound 391]
Asked: Problem: Given the entries P and Q , determine which has the lower reported melting point. Lab note: record the label of whichever item you select.
Given back: Q

----------
Counter-ions that a name gives are not always drawn.
OBSERVATION_TYPE: melting point (°C)

{"COMPOUND": "COc1nc2ccc(Br)cc2cc1C(c1cccc(Cl)c1)C1(O)CCNC(Cc2ccccc2)C1 (stereo not shown) (as salt: fumarate) [Compound 35]", "melting point [°C]": 145}
{"COMPOUND": "COc1nc2ccc(Br)cc2cc1C(c1ccccc1)C1(O)CCNCC1C (stereo not shown) [Compound 426]", "melting point [°C]": 174}
{"COMPOUND": "COc1nc2ccc(S(C)(=O)=O)cc2cc1C(c1ccccc1)C1(O)CCNC(c2ccc(F)cc2C)C1 (stereo not shown) [Compound 184]", "melting point [°C]": 172}

----------
Structures can show the parent of a compound that is named as a salt.
OBSERVATION_TYPE: melting point (°C)

Here's what some known entries look like.
{"MOLECULE": "CCn1c(=O)c(C(c2ccc(Cl)cc2)C2(O)CCNC(Cc3ccccc3)C2)cc2cc(Br)ccc21 (stereo not drawn) [Compound 82]", "melting point, °C": 230}
{"MOLECULE": "COc1nc2ccc(Br)cc2cc1C(c1ccccc1)C1(O)CCNC(c2ccc(F)cc2C)C1 (stereo not drawn) [Compound 247]", "melting point, °C": 132}
{"MOLECULE": "COc1nc2ccc(Cl)cc2cc1C(c1ccc(Cl)cc1)C1(O)CCNC(CO)C1 (stereo not drawn) [Compound 12]", "melting point, °C": 135}

[a] COc1nc2ccc(S(C)(=O)=O)cc2cc1C(c1ccc(Cl)cc1)C1(O)CCNC(Cc2ccc(F)cc2F)C1 (stereo not drawn) (as salt: trifluoroacetate) [Compound 306]
[b] O=c1[nH]c2ccc(Br)cc2cc1C(c1ccc(Cl)cc1)C1(O)CCNC(Cc2ccc(F)cc2F)C1 (stereo not drawn) (as salt: hydrochloride) [Compound 322]
Asked: Given a and b , report the one with the higher recorded melting point. Label of pick, please.
Given back: b
(b: 248 °C, a: 157 °C)

----------
Where a name gives a salt, the structure may show the parent alone.
OBSERVATION_TYPE: melting point (°C)

Reference set, count: 5
{"MOLECULE": "COc1nc2ccc(S(C)(=O)=O)cc2cc1C(c1ccc(Cl)cc1)C1(O)CCNC(c2ccc3ccccc3c2)C1 (centres unmarked) [Compound 459]", "OBSERVATION_TYPE": "melting point", "RESULT_UNITS": "°C", "ENDPOINT_VALUE": 211}
{"MOLECULE": "COc1nc2ccc(Cl)cc2cc1C(c1ccc(S(C)(=O)=O)cc1)C1(O)CCNC(c2ccc(F)cc2C)C1 (centres unmarked) [Compound 366]", "OBSERVATION_TYPE": "melting point", "RESULT_UNITS": "°C", "ENDPOINT_VALUE": 146}
{"MOLECULE": "CSc1nc2ccc(Br)cc2cc1C(c1ccc(Cl)cc1)C1(O)CCNC(Cc2ccccc2)C1 (centres unmarked) (as salt: fumarate) [Compound 88]", "OBSERVATION_TYPE": "melting point", "RESULT_UNITS": "°C", "ENDPOINT_VALUE": 194}
{"MOLECULE": "COc1nc2ccc(Br)cc2cc1C(c1ccc(Cl)cc1)C1(O)CCNC(C)C1 (centres unmarked) [Compound 124]", "OBSERVATION_TYPE": "melting point", "RESULT_UNITS": "°C", "ENDPOINT_VALUE": 164}
{"MOLECULE": "COc1nc2ccc(Cl)cc2cc1C(c1ccc(Cl)cc1)C1(O)CCNCC1F (centres unmarked) [Compound 450]", "OBSERVATION_TYPE": "melting point", "RESULT_UNITS": "°C", "ENDPOINT_VALUE": 200}

[P] COc1nc2ccc(Br)cc2cc1C(c1ccc(C#N)cc1)C1(O)CCNC(Cc2ccccc2)C1 (centres unmarked) [Compound 116]
[Q] COc1nc2ccc(Br)cc2cc1C(c1ccc(Cl)cc1)C1(O)CCNC(Cc2ccc(F)cc2)C1 (centres unmarked) [Compound 356]
Asked: Identify the entry with the smaller melting point: P or Q . Respond with the label that goes with your answer.
Given back: Q
(Q: 98 °C, P: 153 °C)

[P] COc1nc2ccc(S(C)(=O)=O)cc2cc1C(c1ccc(Cl)cc1)C1(O)CCNC(c2ccc(F)cc2C)C1 (centres unmarked) [Compound 202]
[Q] COc1nc2ccc(Br)cc2cc1C(c1ccc(Cl)cc1)C1(O)CCNC(CC2CCCCC2)C1 (centres unmarked) [Compound 257]
Asked: Please tell me which of the two, P or Q , has the higher reported melting point value. Please indicate the selected item by its label.
Given back: P
(P: 186 °C, Q: 108 °C)

[P] COc1nc2ccc(Br)cc2cc1C(c1ccc(Cl)cc1)C1(O)CCNCC1Cc1cccc(F)c1 (centres unmarked) [Compound 226]
[Q] COc1nc2ccc(Br)cc2cc1C(c1ccc(SC)cc1)C1(O)CCNC(Cc2ccccc2)C1 (centres unmarked) [Compound 100]
Asked: Determine, for P and Q , which has the greater value of melting point. Indicate your choice by writing its label.
Given back: P
(P: 221 °C, Q: 143 °C)

----------
Counter-ions that a name gives are not always drawn.
OBSERVATION_TYPE: melting point (°C)

Observe how each entry below is paired with its result.
{"MOLECULE": "COc1nc2ccc(F)cc2cc1C(c1ccc(Cl)cc1)C1(O)CCN(C(C)c2ccccc2)C(CO)C1 (centres unmarked) [Compound 436]", "RESULT_UNITS": "°C", "melting point": 135}
{"MOLECULE": "COc1nc2ccc(Br)cc2cc1C(c1ccc(Cl)cc1)C1(O)CCN(Cc2ccccc2)CC1C (centres unmarked) (as salt: salt) [Compound 25]", "RESULT_UNITS": "°C", "melting point": 154}
{"MOLECULE": "COc1nc2ccc(SC)cc2cc1C(c1ccc(Cl)cc1)C1(O)CCNC(Cc2ccc(F)cc2)C1 (centres unmarked) [Compound 262]", "RESULT_UNITS": "°C", "melting point": 94}
{"MOLECULE": "COc1nc2ccc(Br)cc2cc1C(c1ccc(Cl)cc1)C1(O)CCNC(Cc2ccc(F)c(F)c2)C1 (centres unmarked) [Compound 112]", "RESULT_UNITS": "°C", "melting point": 124}
{"MOLECULE": "COc1nc2ccc(S(C)(=O)=O)cc2cc1C(c1cccc(Cl)c1)C1(O)CCNC(c2ccc(F)cc2C)C1 (centres unmarked) [Compound 171]", "RESULT_UNITS": "°C", "melting point": 161}
{"MOLECULE": "COc1nc2ccc(Cl)cc2cc1C(c1ccc(Cl)cc1)C1(O)CCNCC1c1cccnc1 (centres unmarked) [Compound 444]", "RESULT_UNITS": "°C", "melting point": 172}
{"MOLECULE": "COc1nc2ccc(Br)cc2cc1C(c1ccc(Cl)cc1)C1(O)CCNC(Cc2ccc(F)cc2)C1 (centres unmarked) [Compound 358]", "RESULT_UNITS": "°C", "melting point": 138}
{"MOLECULE": "COc1nc2ccc(S(C)(=O)=O)cc2cc1C(c1ccccc1)C1(O)CCNC(c2ccc(F)cc2C)C1 (centres unmarked) [Compound 186]", "RESULT_UNITS": "°C", "melting point": 166}

[a] COc1nc2ccc(Cl)cc2cc1C(c1ccc(Cl)cc1)C1(O)CCNCC1Cc1ccccn1 (centres unmarked) [Compound 439]
[b] CS(=O)(=O)c1ccc2[nH]c(=O)c(C(c3ccccc3)C3(O)CCNC(Cc4ccccc4)C3)cc2c1 (centres unmarked) [Compound 155]
Asked: Given a and given b , which shows the smaller recorded melting point? Field: selected label. Fill in the label of the entry you choose.
Given back: a

[P] COc1nc2ccc(Cl)cc2cc1C(c1ccc(Cl)cc1)C1(O)CCNC(Cc2ccc(F)cc2)C1 (centres unmarked) (as salt: fumarate) [Compound 348]
[Q] COc1nc2ccc(Br)cc2cc1C(n1cccn1)[C@@]1(O)CCN[C@H](Cc2ccccc2)C1 (stereo in doubt) (as salt: fumarate) [Compound 67]
Asked: Record comparison, field melting point: mark the lower of P and Q . Please reply using the label of the selected record.
Given back: P
(P: 145 °C, Q: 245 °C)

[P] COc1nc2ccc(Br)cc2cc1C(c1ccc(S(C)(=O)=O)cc1)C1(O)CCNC(Cc2ccccc2)C1 (centres unmarked) [Compound 103]
[Q] O=c1[nH]c2ccc(Cl)cc2cc1C(c1ccc(Cl)cc1)C1(O)CCNC(CO)C1 (centres unmarked) [Compound 446]
Asked: Given the listed items, does P or Q have the lesser reported melting point? Which one? Tell me its label.
Given back: P

[1] COc1nc2ccc(SC)cc2cc1C(c1ccc(Cl)cc1)C1(O)CCNC(c2ccc(F)cc2C)C1 (centres unmarked) [Compound 245]
[2] COc1nc2ccc(SC)cc2cc1[C@@H](c1ccc(Cl)cc1)C1(O)CCNCC1(C)C (stereo in doubt) [Compound 62]
Asked: Name the one with the greater melting point value, either 1 or 2 as given. Indicate which entry you chose by stating its label.
Given back: 2
